The measurements presented in this section are drawn from PubChem BioAssay (NCI).

test system: UACC-62 melanoma; experiment: NCI tumour cell line growth inhibition, 48 h
QUANTITY KIND: TGI

Query block: # input molecule: O=C1Sc2cc3ccccc3cc2C(=O)Sc2cc3ccccc3cc21 ; wanted: its TGI
Result block: 67.2 µM

Query block: Now try C/C=C\C(CC(=O)NCCc1c[nH]c2ccccc12)CC(=O)OC (stereo unspecified) .
Result block: > 100 µM

Query block: Also Cc1c(N=Nc2ccc([N+](=O)[O-])cc2)nc2scc(-c3ccccc3)n12 ?
Result block: > 100 µM

Query block: Now give it for OCCCCC#Cc1ccccc1C#Cc1ccccc1 too.
Result block: 23.5 µM

Query block: Also need COc1ccc(C=C2C(=O)OC(C)(C)OC2=O)cc1OC , thanks.
Result block: > 100 µM

Query block: Another molecule to look at: O=c1c2ccccc2c2ccccc2c(=O)n1-c1cc2c3ccccc3ccc2c2ccccc12
Result block: > 100 µM

* * *

test system: DU-145 prostate; experiment: NCI tumour cell line growth inhibition, 48 h; in the data active = GI50 below about 0.43 µM; inactive = the rest
Lab note: assign the record to one of 1 = active, 0 = inactive

Query block: Call for entry COc1ccc(-c2cc(-c3ccc(OC)c(OC)c3)nc(SCCCC(=O)NO)n2)cc1 :
Result block: 0

Query block: Please do the same for COc1ccc(/C=C/C(=O)c2cc3c(N)c(C(=O)Nc4ccccc4Cl)sc3nc2C)cc1 as well.
Result block: 0

Query block: Okay, and N[C@@H](Cc1c[nH]c2ccccc12)C(=O)NC1CCN(C(=O)c2c[nH]c3ccccc23)CC1 ?
Result block: 0

Query block: And for c1ccc(Cc2nc3ccc(Nc4ncnc5ccccc45)cc3[nH]2)cc1 ?
Result block: 0

Query block: Entry to check: CCN(CC)c1ccc(/C=C\c2cc(C)c3cc(C)ccc3n2)cc1
Result block: 0

Query block: Continue with Cc1ccc(C(=O)Nc2ccc(CN3CCN(C)CC3)c(C(F)(F)F)c2)cc1C#Cc1cnc(N)cc1C#N
Result block: 1

Query block: Try this compound too: C#Cc1cccc(Nc2ncnc3cc(OCCOC)c(OCCOC)cc23)c1
Result block: 0

* * *

Exercise: for every item that follows, state its recorded TGI.
test system: LOX IMVI melanoma; assay: NCI tumour cell line growth inhibition, 48 h

Query block: Form field: reported TGI of O=C(O)Cn1ncn(NC(=O)Cc2ccccc2)c1=S
Result block: > 10 µM

Query block: Repeat with CC(C)(C)C(=O)O[C@H]1C=C[C@@H](O)[C@@H]2[C@H]1[C@@H]1C=C[C@H]2C1
Result block: > 100 µM

Query block: Now give it for O=C(O)c1ccc2c(c1)Cc1cc([N+](=O)[O-])ccc1-2 too.
Result block: > 100 µM

Query block: What do we get for COC(=O)NC(Nc1ccc(C)cc1)(C(F)(F)F)C(F)(F)F ?
Result block: > 100 µM

Query block: Cc1ccc(C2(N3CCOCC3)OC(C)(C)c3cccc4cccc2c34)cc1 (configuration not stated) ?
Result block: 31 µM

Query block: Now the same for c1cc2c3c(c1)[C@@H]1O[C@@H]1c1cccc(c1-3)[C@@H]1O[C@H]21
Result block: 10.7 µM

Query block: Would you mind doing O=Cc1c(-c2cc(O)ccc2O)nc2sccn12 as well?
Result block: 33.5 µM

Query block: Try this molecule too: Cn1c(O)c(/C=N/c2ncccn2)c(=O)[nH]c1=O
Result block: > 100 µM

Query block: And the next one, Cc1cc(=O)[nH]c(NN2C(Cl)C(=O)C2c2ccco2)n1 (configuration not stated) ?
Result block: > 100 µM

Query block: Field entry: CC(=O)Nc1nc(C)c(S(=O)(=O)NC(=O)N2c3ccccc3CCc3ccccc32)s1
Result block: > 100 µM

Query block: And then O=c1cc(C(F)(F)F)c2cc3c(cc2o1)NCCC3 , what is it?
Result block: > 100 µM

Query block: Entry CCCCCCCCCC(=O)CC(=O)c1ccc(O)cc1O please
Result block: 38.7 µM

Query block: Another: CC(=O)OC1C(=O)C(O)C(C)OC1O[C@@H]1C[C@@]2(C)[C@@H]3CC=C4[C@@H](C[C@H](O)C(=O)C4(C)C)[C@]3(C)C(=O)C[C@]2(C)[C@H]1[C@@](C)(O)C(=O)/C=C/C(C)(C)O (some centres not stated)
Result block: 2.76 µM

Query block: Input c1ccc(Cc2nc3ccc(Nc4ncnc5ccccc45)cc3[nH]2)cc1
Result block: > 25 µM

Query block: Request: O=C1/C(=C/c2cccs2)N=C(c2ccccc2)N1c1nc2ccccc2s1
Result block: > 100 µM

Query block: Next: CC(C)N(C(=O)C12C3C4C5(C#N)C3C1(I)C5C42I)C(C)C (configuration not stated)
Result block: > 66.1 µM

Query block: Also CCCC1c2c(ccc3ccccc23)Oc2ccc3ccccc3c21 ?
Result block: > 100 µM

* * *

system: SW-620 colon; assay: NCI tumour cell line growth inhibition, 48 h
Would you mind telling me the reported TGI of each entry?

Query block: Request the reported TGI associated with Cc1ccc(Cl)c2c(=O)cc(-c3ccccc3)[nH]c12
Result block: > 100 µM

Query block: What do we get for N#Cc1c(C(=O)c2ccccc2)cnn1-c1ccccc1 ?
Result block: > 25 µM

Query block: What about C/C=C\C(CC(=O)NCCc1c[nH]c2ccccc12)CC(=O)OC (configuration not stated) ?
Result block: > 100 µM

Query block: Try this compound too: Cc1c(Cl)c(=O)oc2cc(OCC(O)COC(C)C)ccc12 (configuration not stated)
Result block: > 100 µM

Query block: Then CC1Cc2c(cc(N)nc2Br)NC1=O (configuration not stated) ?
Result block: > 100 µM

Query block: Another: C/C(=C\COP(=O)(O)OP(=O)(O)O)CC/C=C(\C)CNc1ccccc1
Result block: > 50 µM

Query block: Same read-out for COc1ccc2c3c([nH]c2c1)-c1nc2ccccc2c(=O)n1CC3 ?
Result block: > 25 µM

Query block: Also check O=C(O)CNc1c2ccccc2nc2ccccc12
Result block: > 100 µM

Query block: Subsequent entry: Cc1ccc(NC(=O)CC2C(=O)Nc3ccccc3S2=O)cc1C (configuration not stated)
Result block: > 100 µM

Query block: Another compound to look at: Cc1ccc(C(CN(C)C)C(=O)c2ccccc2)cc1 (configuration not stated)
Result block: 2.71 µM

Query block: Try the compound CCCCCCCCCCCCCCCCCC(=O)OCC(CN(C)CCN(C)C)OC(=O)CCCCCCCCCCCCCCCCC (configuration not stated)
Result block: > 100 µM

Query block: Cool, now Oc1ccc(/C=N\Nc2ccccn2)c(O)c1
Result block: > 100 µM

* * *

system: HOP-18 NSCLC; assay: NCI tumour cell line growth inhibition, 48 h
QUANTITY KIND: TGI

Query block: Need TGI of O=P1(N(CCCl)CCCl)NCCCO1 (configuration not stated) , thanks.
Result block: 150 µM

Query block: Record: CCOc1ccc(N=Cc2cccc3cccnc23)cc1
Result block: > 100 µM

Query block: Entry to check: COC(=O)C1CC(C(=O)OC)c2nc3cc(C)ccc3nc21 (configuration not stated)
Result block: > 100 µM

Query block: And C/C(O)=C(\N=O)C(=O)NCCc1ccccc1 ?
Result block: > 100 µM

Query block: Now give it for CC(=O)Nc1ccc(C(=O)N2N=C(C)/C(=C/c3ccccc3O)C2=O)cc1 too.
Result block: > 100 µM

Query block: Request: O=C1NC(=S)NC(=O)C1=Cc1cc2c(cc1[N+](=O)[O-])OCO2
Result block: > 100 µM

Query block: Same again, this time with CC(=O)OC1C(=O)C(O)C(C)OC1O[C@@H]1C[C@@]2(C)[C@@H]3CC=C4[C@@H](C[C@H](O)C(=O)C4(C)C)[C@]3(C)C(=O)C[C@]2(C)[C@H]1[C@@](C)(O)C(=O)/C=C/C(C)(C)O (some centres not stated)
Result block: 4.9 µM

Query block: What do you have for COC(=O)C1=C(C)N(NC(N)=O)C2(N)N(NC(N)=O)C(C)=C(C(=O)OC)C12C(=O)OC (configuration not stated) ?
Result block: > 100 µM

Query block: Follow-up entry: COC(=O)C(CCS(=O)(=O)CC(=O)C(=O)Nc1cccc(C(C)=O)c1)C(=O)OC
Result block: > 100 µM

Query block: Could you do the same for CCCN(CCCCC(NC(C)=O)C(=O)NCc1ccccc1)C(=O)NCCCl (configuration not stated) , please?
Result block: > 100 µM

Query block: Next up: Cc1ccccc1-c1c(N)nc(NC#N)nc1C(=O)Nc1ccccc1
Result block: > 100 µM

Query block: And O=C1C(Cl)=C(Cl)C(=O)N1C1C2CC3CC(C2)CC1C3 (configuration not stated) ?
Result block: > 100 µM

* * *

test system: NCI-H460 lung
Assign a class; possible classes are TRUE (active), FALSE (inactive)

Query block: Hey, what did the test say about CC[C@]1(O)CC2CN(CCc3c([nH]c4ccccc34)[C@@](C(=O)OC)(c3cc4c(cc3OC)N(C)[C@H]3[C@@](O)(C(=O)OC)[C@H](OC(C)=O)[C@]5(CC)C=CCN6CC[C@]43[C@@H]65)C2)C1 (stereo not given in full) ?
Result block: TRUE

Query block: Entry Oc1ccc(/C=N\Nc2ccccn2)c(O)c1 please
Result block: FALSE

Query block: Please give the result for C=C1C(=O)O[C@H]2[C@H]1CC/C(COC(=O)NCc1cc3ccccc3[nH]1)=C\CC[C@@]1(C)O[C@@H]21 too.
Result block: FALSE

Query block: Can you check OCc1cn(Cc2cccc(Cl)c2)c2ccccc12 next?
Result block: TRUE

Query block: Then Oc1ccc(Cc2ccc(O)c3ncccc23)c2cccnc12 ?
Result block: TRUE
